Target: human PSMA on tumor cells (LNCaP, MDA-PCA-2B, VCAP, 22Rv1) (human, UniProt Q04609 1-750)
Sequence (Q04609 whole entry): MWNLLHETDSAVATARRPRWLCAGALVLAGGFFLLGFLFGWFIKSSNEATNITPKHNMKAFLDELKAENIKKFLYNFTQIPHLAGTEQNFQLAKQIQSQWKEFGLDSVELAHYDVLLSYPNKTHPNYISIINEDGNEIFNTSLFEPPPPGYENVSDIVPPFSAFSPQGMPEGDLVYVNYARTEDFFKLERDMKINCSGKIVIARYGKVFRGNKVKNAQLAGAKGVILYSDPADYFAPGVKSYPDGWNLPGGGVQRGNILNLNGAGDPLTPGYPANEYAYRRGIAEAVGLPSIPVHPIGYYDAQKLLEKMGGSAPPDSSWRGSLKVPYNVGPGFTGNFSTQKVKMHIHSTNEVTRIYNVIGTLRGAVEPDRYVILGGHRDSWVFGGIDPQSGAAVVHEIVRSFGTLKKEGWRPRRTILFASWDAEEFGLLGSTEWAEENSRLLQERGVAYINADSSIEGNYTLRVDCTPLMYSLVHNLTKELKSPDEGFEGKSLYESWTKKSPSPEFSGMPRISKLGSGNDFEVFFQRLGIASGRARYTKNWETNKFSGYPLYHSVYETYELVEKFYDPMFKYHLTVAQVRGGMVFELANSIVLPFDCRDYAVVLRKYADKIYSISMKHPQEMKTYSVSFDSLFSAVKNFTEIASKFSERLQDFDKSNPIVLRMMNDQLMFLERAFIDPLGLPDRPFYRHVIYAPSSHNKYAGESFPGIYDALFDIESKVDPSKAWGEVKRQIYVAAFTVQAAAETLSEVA
Test: cell-based or functional assay
Result type: VCAP cells IC50 (nM), cytotoxicity of FN3 domain-drug conjugate
One number for each entry, in nM.

{"Binder": "P234CR9_H01 (designed binder, not shown: C-terminal poly-histidine tag) LPAPKNLVVSRVTEDSARLSWEWWVIPGDFDSFLIQYQESEKVGEAIVLTVPGSERSYDLTGLKPGTEYTVSIYGVVNSGQWNDTSNPLSAIFTT", "Observed result": 401}

Need VCAP cells IC50 (nM), cytotoxicity of FN3 domain-drug conjugate for each of these binders.
1. P229CR5P819_H11 (designed binder, In the cytotoxicity assays it was conjugated to vc-MMAF (cysteine-maleimide chemistry or sortase reaction); also called P229CR9P819-H11; not shown: C-terminal poly-histidine tag) LPAPKNLVVSRVTEDSARLSWDIDEQRDWFDSFLIQYQESEKVGEAIVLTVPGSERSYDLTGLKPGTEYTVSIYGVYHVYRSSNPLSAIFTT
2. P233FR9_H10 (designed binder, also called H10 FN3 domain; P233FR9_10; not shown: C-terminal poly-histidine tag) LPAPKNLVVSRVTEDSARLSWTAPDAAFDSFAIGYWEWDDDGEAIVLTVPGSERSYDLTGLKPGTEYPVYIAGVKGGQWSFPLSAIFTT
3. P233FR9P1001_H3-1 (designed binder, not shown: C-terminal poly-histidine tag) LPAPKNLVVSRVTEDSARLSWTAPDAAFDSFPIGYWEWDDDGEAIVLTVPGSERSYDLTGLKPGTEYHVYIAGVKGGQWSFPLSAIFTT

[231, 25.9, 15.2]
